Target: NaV1.1 (Homo sapiens (Human))
Experiment: Sodium Influx Assay (Flux), NaV1.1;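 further: channels co-expressed with human β1 subunit and held open by modulators, cells exposed to compounds for one hour at room temperature, IC50 from percent inhibition of influx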
Type: cell-based
Conditions: Trex HEK293 cells, ANG2 dye, inactivated state
pIC50: −log10 of the molar value.
Is pIC50 at least 5? Then Met. If not, Not met.

- smilesStructure: "C[C@H](Nc1ccc(S(=O)(=O)Nc2nccs2)cc1Cl)c1ccccc1F"
  assignedLabel: "Met"
- smilesStructure: "O=S(=O)(Nc1cccnn1)c1cc(Cl)c(NCc2c(F)cccc2CN2CCC2)cc1F"
  assignedLabel: "Not met"
- smilesStructure: "C[C@H](Nc1ccc(S(=O)(=O)Nc2nccs2)cc1Cl)c1ccccn1"
  assignedLabel: "Not met"
- smilesStructure: "C[C@H](Nc1cc(F)c(S(=O)(=O)Nc2nccs2)cc1Cl)c1cccc2ccccc12"
  assignedLabel: "Not met"

---

Biological target: UniProtKB Q14524
Assay: Sodium Influx Assay (Flux), NaV1.5
Details: read-out: Flux NaV1.5 IC50; Trex HEK293 cells, ANG2 dye, inactivated state
Where a name gives a salt, the structure may show the parent alone.
In this section, each of the compounds is paired with its reported IC50.
property: IC50 (µM)

- compound: "CCc1cccc(CN2CCC2)c1CNc1cc(F)c(S(=O)(=O)Nc2cscn2)c(F)c1 [Example 210, 2,2,2-trifluoroacetate]"
  observedValue: 26.8
- compound: "C[C@H](Oc1cc(F)c(S(=O)(=O)Nc2nccs2)cc1Cl)c1cccc(F)c1"
  observedValue: 4.64
- compound: "CC(Cc1cccnc1)Nc1cc(F)c(S(=O)(=O)Nc2nccs2)cc1Cl (stereo not shown)"
  observedValue: 30
- compound: "O=S(=O)(Nc1cscn1)c1c(F)cc(NCc2c(F)cccc2CN2CC3(COC3)C2)cc1F [Example 153, formate]"
  observedValue: 30

---

# reported IC50; entries follow
Molecular target: NaV1.6 (Homo sapiens (Human), UniProt Q9UQD0)
Assay: Sodium Influx Assay (Flux), NaV1.6;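 further: Tetracycline-induced cells, compounds applied for one hour at room temperature with modulators holding channels open, IC50 from percent inhibition of sodium influx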
Type: cell-based
Conditions: Trex HEK293 cells, ANG2 dye, inactivated state

- compound: "O=S(=O)(Nc1nccs1)c1cc(Cl)c(OCc2ccccc2CN2CCC2)cc1F"
  IC50: "384 nM"
- compound: "O=S(=O)(Nc1ncns1)c1ccc(NCc2ccccc2)c(Cl)c1"
  IC50: "462 nM"
- compound: "Cc1c(NCc2ccccc2CN2CCC2)cc(F)c(S(=O)(=O)Nc2ccncn2)c1F [Example 310, 2,2,2-trifluoroacetate]"
  IC50: "10 nM"
- compound: "N#Cc1ccccc1CNc1cc(F)c(S(=O)(=O)Nc2nccs2)cc1Cl"
  IC50: "308 nM"
- compound: "O=S(=O)(Nc1cscn1)c1cc(Cl)c(NC2(c3ccccc3)CC2)cc1F"
  IC50: "2050 nM"
- compound: "C[C@H](Nc1cc(F)c(S(=O)(=O)Nc2cscn2)cc1Cl)c1cc(F)cc(F)c1"
  IC50: "4230 nM"
- compound: "O=S(=O)(Nc1cscn1)c1c(F)cc(NCc2ccccc2CCN2CC(F)(F)C2)cc1F"
  IC50: "2310 nM"
- compound: "C[C@H](Nc1cc(F)c(S(=O)(=O)Nc2ccncn2)c(F)c1)c1cc(Cl)ccc1F [Example 206, 2,2,2-trifluoroacetate]"
  IC50: "448 nM"

---

Target: NaV1.5 (Homo sapiens (Human), UniProt Q14524)
Sequence (Q14524 other isoform, or with tags, fused parts or gaps): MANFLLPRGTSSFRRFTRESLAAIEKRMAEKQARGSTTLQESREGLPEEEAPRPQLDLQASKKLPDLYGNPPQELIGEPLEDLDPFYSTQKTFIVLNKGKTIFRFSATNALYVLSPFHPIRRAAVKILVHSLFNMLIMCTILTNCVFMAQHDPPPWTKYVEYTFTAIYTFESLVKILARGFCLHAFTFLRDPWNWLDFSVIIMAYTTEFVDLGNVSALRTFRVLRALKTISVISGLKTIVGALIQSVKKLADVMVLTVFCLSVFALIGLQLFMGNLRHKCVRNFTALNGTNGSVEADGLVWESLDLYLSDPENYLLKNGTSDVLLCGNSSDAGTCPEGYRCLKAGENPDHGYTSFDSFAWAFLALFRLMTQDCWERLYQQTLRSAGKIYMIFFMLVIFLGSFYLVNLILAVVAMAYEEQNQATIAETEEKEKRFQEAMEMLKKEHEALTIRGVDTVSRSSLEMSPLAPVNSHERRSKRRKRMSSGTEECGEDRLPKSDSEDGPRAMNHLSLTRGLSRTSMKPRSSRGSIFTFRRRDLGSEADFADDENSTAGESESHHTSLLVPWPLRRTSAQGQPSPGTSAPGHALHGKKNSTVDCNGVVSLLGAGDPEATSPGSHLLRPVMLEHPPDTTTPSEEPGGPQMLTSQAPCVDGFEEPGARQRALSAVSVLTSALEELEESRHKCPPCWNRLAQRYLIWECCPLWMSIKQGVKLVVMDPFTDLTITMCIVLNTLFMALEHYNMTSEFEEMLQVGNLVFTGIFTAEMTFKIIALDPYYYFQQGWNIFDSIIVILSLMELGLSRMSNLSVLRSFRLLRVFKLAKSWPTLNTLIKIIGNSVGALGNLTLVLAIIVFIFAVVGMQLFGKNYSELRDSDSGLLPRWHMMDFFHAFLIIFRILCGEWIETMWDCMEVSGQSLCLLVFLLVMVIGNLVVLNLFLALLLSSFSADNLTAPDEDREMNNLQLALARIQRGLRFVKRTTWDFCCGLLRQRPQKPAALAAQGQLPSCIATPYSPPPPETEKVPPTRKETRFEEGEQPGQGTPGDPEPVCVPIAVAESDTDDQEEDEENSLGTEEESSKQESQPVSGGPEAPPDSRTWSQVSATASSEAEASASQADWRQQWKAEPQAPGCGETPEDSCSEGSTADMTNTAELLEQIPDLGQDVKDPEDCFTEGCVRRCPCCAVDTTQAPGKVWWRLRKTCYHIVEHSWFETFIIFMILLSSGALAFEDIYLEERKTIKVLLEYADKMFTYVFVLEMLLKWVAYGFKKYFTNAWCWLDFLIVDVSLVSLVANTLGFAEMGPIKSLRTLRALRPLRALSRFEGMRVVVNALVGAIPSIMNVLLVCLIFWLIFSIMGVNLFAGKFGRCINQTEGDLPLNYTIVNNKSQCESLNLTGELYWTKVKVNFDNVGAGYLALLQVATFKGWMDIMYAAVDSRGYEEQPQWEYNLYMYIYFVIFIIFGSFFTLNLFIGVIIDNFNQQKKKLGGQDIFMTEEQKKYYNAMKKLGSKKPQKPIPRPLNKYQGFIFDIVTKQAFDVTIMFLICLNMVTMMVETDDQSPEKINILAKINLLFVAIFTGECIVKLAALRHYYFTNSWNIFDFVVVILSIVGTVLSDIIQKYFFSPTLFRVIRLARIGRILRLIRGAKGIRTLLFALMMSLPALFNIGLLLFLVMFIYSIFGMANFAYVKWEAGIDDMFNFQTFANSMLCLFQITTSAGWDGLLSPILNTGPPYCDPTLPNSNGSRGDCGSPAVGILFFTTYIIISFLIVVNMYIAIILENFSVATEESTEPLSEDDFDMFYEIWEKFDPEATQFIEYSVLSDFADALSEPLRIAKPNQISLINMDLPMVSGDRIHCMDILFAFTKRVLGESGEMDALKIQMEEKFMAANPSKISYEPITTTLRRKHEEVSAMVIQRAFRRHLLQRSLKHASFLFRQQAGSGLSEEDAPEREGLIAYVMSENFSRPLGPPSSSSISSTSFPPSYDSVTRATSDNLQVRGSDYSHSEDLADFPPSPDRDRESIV
Assay: Sodium Influx Assay (Flux), NaV1.5
Settings: read-out: Flux NaV1.5 IC50; Trex HEK293 cells, ANG2 dye, inactivated state
pIC50: −log10 of the molar value. Counter-ions that a name gives are not always drawn.
Label scheme for pIC50: lower than 5 is not met, 5 and above is met.

- compound: "O=S(=O)(Nc1cscn1)c1c(F)cc(NCc2ccccc2CCN2CC(F)C2)cc1F [Example 320, formate]"
  assignedLabel: "not met"
- compound: "COCc1cccc(F)c1CNc1cc(F)c(S(=O)(=O)Nc2cscn2)cc1Cl"
  assignedLabel: "not met"
- compound: "CC1(C)CCN1Cc1cccc(Cl)c1CNc1cc(F)c(S(=O)(=O)Nc2cscn2)c(F)c1 [Example 199, formate]"
  assignedLabel: "not met"
- compound: "O=S(=O)(Nc1cscn1)c1cc(Cl)c(NCc2c(F)ccc(F)c2CN2CCC2)cc1F [Example 288, hydrochloride]"
  assignedLabel: "not met"
- compound: "O=S(=O)(Nc1ncns1)c1ccc(NCc2ccccc2)c(Cl)c1"
  assignedLabel: "not met"
- compound: "C[C@H](Nc1cc(F)c(S(=O)(=O)Nc2nccs2)cc1Cl)c1cccc(F)c1"
  assignedLabel: "met"

Just for reference, patent US11174268B2 is where these values come from.
